Hello, the source for this data is BindingDB's records for doi:10.1021/jm00172a024, in case you need it.

# target-under-test: Cysteinyl leukotriene receptor 1 (Cavia porcellus)
# measurement-notes: In vitro binding affinity against Cysteinyl leukotriene D4 receptor from guinea pig lung membrane
endpoint-name: Ki
# do not omit the unit; it follows the number

Consider the compound CCCC(CCc1nnn[nH]1)Cc1ccc(OCc2ccc3ccccc3n2)cc1 (stereo unspecified) and give its recorded Ki.
11 nM
